Values from paper PMC6151383

tested on: ESBL-positive Klebsiella pneumoniae J 14368/08; details: 24 h
recorded endpoint: MIC KP-E 24 h

Below are worked cases with known answers.
chemical smiles	target entity	MIC KP-E 24 h
O=[N+]([O-])c1ccc(C=Nc2ccc(S(=O)(=O)Nc3ncccn3)cc2)o1	ESBL-positive Klebsiella pneumoniae J 14368/08	500 µM
O=[N+]([O-])c1ccc(O)c(C=Nc2ccc(S(=O)(=O)Nc3ncccn3)cc2)c1	ESBL-positive Klebsiella pneumoniae J 14368/08	500 µM
Cc1ccc(O)c(C=Nc2ccc(S(=O)(=O)Nc3ncccn3)cc2)c1	ESBL-positive Klebsiella pneumoniae J 14368/08	>250 µM
O=S(=O)(Nc1ncccn1)c1ccc(N=Cc2cc(F)ccc2O)cc1	ESBL-positive Klebsiella pneumoniae J 14368/08	>250 µM
O=S(=O)(Nc1ncccn1)c1ccc(N=Cc2cc(Cl)cc(Cl)c2O)cc1	ESBL-positive Klebsiella pneumoniae J 14368/08	500 µM

With those in mind, consider the next molecule.
Entry under review: "O=S(=O)(Nc1ncccn1)c1ccc(N=Cc2cccc(Cl)c2O)cc1" . Reported MIC KP-E 24 h?
>500 µM
